Test system: HT29 colon
method.description: NCI-60 one-dose screen, 48 h
test.context: 10 µM unless noted
About 83,000 compounds went through this panel and 20% of them were active in at least one assay; those are over-represented in the sample as a whole. Activity calls are given as the source filed them. How the source made its calls: active means growth percent below 10; inactive means the rest.
Labels: active, inactive

compound | qualitative.label
COc1cc(OC)c(/C=C/c2ccc3ccccc3[n+]2C)c(OC)c1 | active
OC(c1ccccc1)(c1ccccc1)C(F)(F)F | inactive
Oc1ccccc1/C=N/N=C/c1c(O)ccc2ccccc12 | inactive
Nc1ccc(S(=O)(=O)c2ccc(NO)cc2)cc1 | inactive
O=C1c2cc([N+](=O)[O-])ccc2-c2cc(Cl)c(NC(=O)C(F)(F)F)cc21 | inactive
C/C=C(/C)C(=O)OC1C=C(CO)C(=O)C(OC(=O)C(C)(O)C(C)Cl)C1C(C)C (stereo not given) | active
O=C(/C=C1\C(=O)N(Cc2ccc([N+](=O)[O-])cc2)c2ccccc21)c1ccc(OCCN2CCCCC2)cc1 | active
CC[N+](C)(C)N | inactive
COc1cc2cn3c4ccc(O)cc4[nH]c(=O)c3c2cc1OC | active
Cc1ccc(C(=O)C(Br)C(Br)c2ccccc2)cc1 (stereo not given) | inactive
CCCCCCCCCCCCCCCCCC(=O)Nc1ccc(O)cc1 | inactive
BrCCCOc1ccc(Oc2ccc(OCCCBr)cc2)cc1 | inactive
O=C(Nc1ccccc1)Nc1ccc(Nc2ncnc3sc4c(c23)CCCC4)cc1 | inactive
O=C1C(=O)c2ccccc2C(O)=C1CCCc1ccc(Oc2ccccc2)cc1 | inactive
CCOC(=O)C1=C(c2ccccc2)NC(=O)NC1CN1C(=O)c2ccccc2C1=O (stereo not given) | inactive
CC(=O)Nc1nc(C)c(C(=O)NNS(=O)(=O)c2ccccc2)s1 | inactive
O=C(O)CC1Cc2ccccc2C1C(=O)O (stereo not given) | inactive
C[C@H]1C[C@@H](n2cnc3c(N)nccc32)[C@H](O)[C@@H]1O | inactive
O=C(CN1CCN(c2cccc(Cl)c2)CC1)N1CCN(c2nnc(-c3ccc(Cl)cc3)c(-c3ccc(Cl)cc3)n2)CC1 | inactive
COc1ccc(/C=C/C(=O)/C=C/c2cc3ccccc3[nH]c2=O)cc1 | active
COc1cc(Cn2ccc3c2-c2oncc2CC3)cc(OC)c1 | inactive
COc1cc(-c2nn(-c3ccc(NC(=O)Nc4cc(C(F)(F)F)cc(C(F)(F)F)c4)cc3)cc2-c2ccncc2)ccc1Cl | active
COc1ccc2cc(C(C)C(=O)Nc3ccc(S(=O)(=O)Nc4cc(C)on4)cc3)ccc2c1 (stereo not given) | inactive
CCCCCCCCCCC1OC(C)CC(C)O1 (stereo not given) | inactive
COc1ccc(-c2cc(C#N)c(NNC(C)=O)[nH]2)cc1 | inactive
CC(C)C(=O)c1ccc(Cl)s1 | inactive
CC1=C(C)C(=O)C(C(C)C2=C(C)C(=O)C(C)=C(C)C2=O)=C(C)C1=O | inactive
COc1ccc(C2=C/C(=C\c3ccc(Cl)cc3)C(=O)NN2C(=S)NN)cc1 | inactive
COc1ccc2c(c1)/C(=C/c1c(-c3cc(OC)c(OC)c(OC)c3)nc3sccn13)C(=O)N2 | inactive
N=C(N)N=Nc1ccc(NN=C(N)N)c2ccccc12 | inactive
CC(=O)N1N=C(c2ccc(Cl)cc2)CC1c1cn(-c2ccccc2)nc1-c1ccc([N+](=O)[O-])cc1 (stereo not given) | inactive
N#CCCCCCCCCCCC#N | inactive
CC(=O)/C(=C\c1c(-c2ccccc2)[nH]c2ccccc12)S(=O)(=O)c1ccccc1 | inactive
COc1cccc2c1n([O-])c1cccc(OC)c1[n+]2=O | inactive
COc1ccc(Cn2cc3c(c2)-c2oncc2CC3)cc1OC | active
O=C(/C=C1\C(=O)N(Cc2ccccc2)c2ccccc21)c1ccc(OCCN2CCCCC2)cc1 | active
O=C(/C=C1\C(=O)N(Cc2ccc([N+](=O)[O-])cc2)c2ccccc21)c1ccc(OCCN2CCCC2)cc1 | inactive
O=Nc1ccc(O)c2ccccc12 | active
CC(=O)Nc1ccc(S(=O)(=O)Cl)cc1 | inactive
NC(=O)c1c(Nc2ccccc2)nn2cc(-c3nc4ccccc4s3)c(N)nc12 | inactive
COc1cc(CNC(=O)CCCC/C=C/C(C)C)ccc1OCc1nnc(Nc2ccccc2F)o1 | inactive
Cc1nnc(/N=C2\NC(=O)/C(=C/C=C/c3ccccc3)S2)s1 | inactive
COc1cc(-c2nc3c(c(C)nc4c3nnn4-c3ccccc3)c(=O)o2)cc(OC)c1OC | inactive
CCOC(=O)CSSCC(=O)OCC | inactive
CCOC(=O)NC1=NCC(C)(C)S1 | inactive
